Data credit: the supplement of paper PMC6757056

B1: library; a variant is named by its letters at N, in order (parent)
chain: GCUGUCACCGAGAAACUGUGAAGUAUAUCUUAAACCUGGGCACUUAAAAGAUAUAUGGAGUUAGUAGUGCAACCUGCUCGGUCUGAUGAGUCCNNNNNNGGACGAAACAGC

Variants of: B1
ASSAY OVERVIEW: normalized RNA/DNA level without ligand (relative to sTRSVctl = 100) (log10 (% of sTRSVctl)); HEK293T; ligand: cyclic di-GMP (c-di-GMP-II aptamer); higher = less ribozyme self-cleavage, higher mRNA level
COND: reporter: mCherry (pCS4076), ligand present: no
ENDPOINT: normalized RNA/DNA level without ligand (log10)
Output: the number by itself.

| VARIANT NOTATION | OBSERVED MEASUREMENT |
| --- | --- |
| UGCGUA | 1.6 |
| UCCUUC | 1.71 |
| AAUACU | 1.71 |
| CUCCAC | 1.72 |
| GCAUCG | 1.59 |

Notebook: "GGCUAC" , normalized RNA/DNA level without ligand (log10) read as 1.7

response.value for "CACAAA" (field: normalized RNA/DNA level without ligand (log10)) = 1.24

"UAGCAC" yielded normalized RNA/DNA level without ligand (log10) of 1.71
